Assay: solubility of 5-iodo-2'-deoxycytidine in various vehicles
Type: physicochemical
Details: organic solvent or mixture; 1-propanol, ±SD; read-out: Solubility of 5-IDC
observable: solubility (mg/mL)
Use mg/mL as the unit, but write only the number.

Exercise: // solubility lookup, key: `Nc1nc(=O)n([C@H]2C[C@H](O)[C@@H](CO)O2)cc1I`
Key: 2.15
